Entries and their inhibition at 1 µM
ASSAY TARGET: human recombinant serotonin (5-Hydroxytryptamine) 5-HT2C receptor (Homo sapiens, UniProt P28335)
Construct: expressed in transfected cells; host or cells: CHO-K1 cells
Sequence (P28335 33-458): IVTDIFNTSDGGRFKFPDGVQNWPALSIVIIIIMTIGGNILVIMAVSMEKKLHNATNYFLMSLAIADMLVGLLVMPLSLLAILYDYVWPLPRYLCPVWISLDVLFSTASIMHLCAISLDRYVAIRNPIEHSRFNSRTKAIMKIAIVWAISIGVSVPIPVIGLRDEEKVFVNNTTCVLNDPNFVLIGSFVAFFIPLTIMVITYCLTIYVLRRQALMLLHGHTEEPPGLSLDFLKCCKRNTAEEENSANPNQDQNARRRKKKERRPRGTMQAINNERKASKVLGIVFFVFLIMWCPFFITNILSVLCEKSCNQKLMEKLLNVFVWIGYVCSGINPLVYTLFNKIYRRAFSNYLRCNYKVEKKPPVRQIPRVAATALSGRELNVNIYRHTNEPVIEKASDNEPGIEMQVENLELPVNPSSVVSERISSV
MEASUREMENT PROTOCOL: Serotonin 5-HT2C radioligand binding ([3H]Mesulergine)
TEST CONTEXT: compound at 1 μM; read-out: Serotonin (1 μM) 5-HT2C, percent inhibition of specific binding
State the answer as a number, implicitly in %.

Worked cases, answers included:
C/C(=C\n1c2c(c3cc(C)ccc31)CCN(C)CC2)c1ccc(F)cc1 :: 97
Cc1ccc2c(c1)c1c(n2/C=C/c2ccccc2F)CCN(C)CC1 :: 100
C/C(=C\n1c2c(c3cc(Cl)ccc31)CCN(C)CC2)c1ccccc1Cl :: 99

# input for lookup
Item under review: "CN1CCc2c(n(CCc3ccc(C(F)(F)F)nc3)c3ccc(Cl)cc23)CC1" . Reported inhibition at 1 µM?
79

---

ASSAY TARGET: human recombinant histamine H2 receptor (Homo sapiens, UniProt P25021)
Construct: expressed in transfected cells; host or cells: CHO-K1 cells
Sequence (P25021 whole entry): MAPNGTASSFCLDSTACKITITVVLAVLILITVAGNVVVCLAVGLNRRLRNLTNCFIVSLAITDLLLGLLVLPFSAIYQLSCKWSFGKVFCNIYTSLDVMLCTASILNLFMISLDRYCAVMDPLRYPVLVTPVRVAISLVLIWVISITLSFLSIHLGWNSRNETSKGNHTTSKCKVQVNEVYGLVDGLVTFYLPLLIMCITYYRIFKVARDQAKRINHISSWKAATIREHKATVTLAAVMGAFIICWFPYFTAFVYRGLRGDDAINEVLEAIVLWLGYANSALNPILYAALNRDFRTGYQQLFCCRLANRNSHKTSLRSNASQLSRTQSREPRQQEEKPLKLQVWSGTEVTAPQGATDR
MEASUREMENT PROTOCOL: Histamine H2 radioligand binding ([125I]Aminopotentidine)
TEST CONTEXT: compound at 1 μM; read-out: Histamine Binding (1 μM) H2, percent inhibition of specific binding
Method: To evaluate in radioligand binding assays the activity of compounds of the invention, human recombinant histamine H2 receptor expressed in Chinese hamster ovary (CHO) K1 cells (Ruat, M., Proc. Natl. Acad. Sci. USA. 87(5):1658, 1990) in a 50 mM Phosphate buffer, pH 7.4 was used. […] Receptor proteins were filtered and washed, the filters were then counted to determine [^125I]Aminopotentidine specifically bound. […]
Entries and their inhibition at 1 µM
State the answer as a number, implicitly in %.

CN1CCc2c(n(CCc3ccccc3)c3ccc(Cl)cc23)CC1 :: 74
CN1CCc2c(n(CCc3ccc(C(=O)O)nc3)c3ccc(Cl)cc23)CC1 :: 13
CN1CCc2c(n(CC(C)(O)c3ccc(F)cc3)c3ccc(Cl)cc23)CC1 (stereo not shown) :: 92
Cc1ccc2c(c1)c1c(n2CC(O)c2ccc(C)nc2)CCN(C)CC1 (stereo not shown) :: -3
Cc1ccc2c(c1)c1c(n2CC(O)c2cccnc2)CCN(C)CC1 (stereo not shown) :: 42

What measured inhibition at 1 µM is associated with "C/C(=C\n1c2c(c3cc(Cl)ccc31)CCN(C)CC2)c1cccc(F)c1" on human recombinant histamine H2 receptor (Homo sapiens, UniProt P25021)?
85

What measured inhibition at 1 µM is associated with "C/C(=C\n1c2c(c3cc(Cl)ccc31)CCN(C)CC2)c1ccc(Cl)c(Cl)c1" on human recombinant histamine H2 receptor (Homo sapiens, UniProt P25021)?
97

What measured inhibition at 1 µM is associated with CN1CCc2c(n(CC(O)c3cccnc3)c3ccc(Cl)cc23)CC1 (stereo not shown) on human recombinant histamine H2 receptor (Homo sapiens, UniProt P25021)?
51

What measured inhibition at 1 µM is associated with "CN1CCc2c(n(CC(=O)N3CCNCC3)c3ccc(Cl)cc23)CC1" on human recombinant histamine H2 receptor (Homo sapiens, UniProt P25021)?
0

What measured inhibition at 1 µM is associated with "CN1CCc2c(n(/C=C/c3ccc(F)c(F)c3)c3ccc(Cl)cc23)CC1" on human recombinant histamine H2 receptor (Homo sapiens, UniProt P25021)?
97

What measured inhibition at 1 µM is associated with "C/C(=C\n1c2c(c3cc(Cl)ccc31)CCN(C)CC2)c1ccc(F)cc1" on human recombinant histamine H2 receptor (Homo sapiens, UniProt P25021)?
105

What measured inhibition at 1 µM is associated with "C/C(=C\n1c2c(c3cc(C)ccc31)CCN(C)CC2)c1cccc(F)c1" on human recombinant histamine H2 receptor (Homo sapiens, UniProt P25021)?
87

What measured inhibition at 1 µM is associated with Cc1ccc2c(c1)c1c(n2CC(O)c2ccncc2)CCN(C)CC1 (stereo not shown) on human recombinant histamine H2 receptor (Homo sapiens, UniProt P25021)?
30

What measured inhibition at 1 µM is associated with CN1CCc2c(n(CC(O)c3ccccc3)c3ccc(Cl)cc23)CC1 (stereo not shown) on human recombinant histamine H2 receptor (Homo sapiens, UniProt P25021)?
58

What measured inhibition at 1 µM is associated with "CN1CCc2c(n(/C=C/c3ccccc3F)c3ccc(Cl)cc23)CC1" on human recombinant histamine H2 receptor (Homo sapiens, UniProt P25021)?
98

What measured inhibition at 1 µM is associated with "CN1CCc2c(n(CC(=O)Nc3ccccc3)c3ccc(Cl)cc23)CC1" on human recombinant histamine H2 receptor (Homo sapiens, UniProt P25021)?
-5

What measured inhibition at 1 µM is associated with "C/C(=C\n1c2c(c3cc(C)ccc31)CCN(C)CC2)c1ccc(Cl)cc1Cl" on human recombinant histamine H2 receptor (Homo sapiens, UniProt P25021)?
98

What measured inhibition at 1 µM is associated with COc1ccc(C(O)Cn2c3c(c4cc(Cl)ccc42)CCN(C)CC3)cc1 (stereo not shown) on human recombinant histamine H2 receptor (Homo sapiens, UniProt P25021)?
70

What measured inhibition at 1 µM is associated with COc1ccc(C(O)Cn2c3c(c4cc(Cl)ccc42)CCN(C)CC3)cc1F (stereo not shown) on human recombinant histamine H2 receptor (Homo sapiens, UniProt P25021)?
72
